Biological target: alanyl aminopeptidases (APN) (Homo sapiens)
Sequence (P15144 whole entry, species assumed): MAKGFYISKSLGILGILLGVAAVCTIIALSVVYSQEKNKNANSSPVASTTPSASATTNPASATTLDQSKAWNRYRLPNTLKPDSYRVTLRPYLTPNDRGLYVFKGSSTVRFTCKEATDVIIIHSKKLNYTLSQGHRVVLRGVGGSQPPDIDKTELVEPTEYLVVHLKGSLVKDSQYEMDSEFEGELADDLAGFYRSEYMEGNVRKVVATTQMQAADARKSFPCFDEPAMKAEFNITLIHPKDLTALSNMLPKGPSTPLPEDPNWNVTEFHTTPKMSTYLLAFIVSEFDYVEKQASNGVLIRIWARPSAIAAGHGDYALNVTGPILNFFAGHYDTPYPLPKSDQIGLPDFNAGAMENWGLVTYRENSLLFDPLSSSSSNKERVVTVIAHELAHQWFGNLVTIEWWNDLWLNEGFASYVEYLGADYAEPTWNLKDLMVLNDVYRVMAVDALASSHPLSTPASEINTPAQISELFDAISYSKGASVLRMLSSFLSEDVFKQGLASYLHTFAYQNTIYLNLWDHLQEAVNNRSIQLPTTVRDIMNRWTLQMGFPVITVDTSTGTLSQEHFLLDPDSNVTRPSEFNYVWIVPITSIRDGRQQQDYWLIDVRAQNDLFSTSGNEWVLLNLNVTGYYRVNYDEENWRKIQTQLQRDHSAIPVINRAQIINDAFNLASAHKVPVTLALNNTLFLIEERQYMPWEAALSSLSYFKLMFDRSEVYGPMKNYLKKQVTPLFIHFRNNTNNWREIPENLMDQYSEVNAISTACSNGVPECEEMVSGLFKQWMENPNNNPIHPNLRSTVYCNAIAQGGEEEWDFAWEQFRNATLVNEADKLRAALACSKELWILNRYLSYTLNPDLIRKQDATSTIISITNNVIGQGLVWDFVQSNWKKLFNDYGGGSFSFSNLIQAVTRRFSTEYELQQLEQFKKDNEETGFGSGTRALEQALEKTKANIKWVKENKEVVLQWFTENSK
Assay: Inhibition of alanyl aminopeptidase enzymatic activity, fluorogenic substrate (Ala)2-rhodamine 110
Assay type: biochemical
Conditions: Table 9, unstarred values; read-out: IC50APN
Please respond with Met when measured IC50 is strictly beneath 30 µM, and with Not met in all other cases.

molecule	qualitative_label
Cc1ccc(Cn2c(SCCC(=O)O)nc3c2c(=O)n(C)c(=O)n3C)cc1	Met
O=C(/C=C/c1ccco1)Nc1ccc(OCC(=O)N2CCOCC2)cc1	Met
O=C1Nc2cc(C(=O)N3CCN(c4ccccc4)CC3)ccc2NC1CSCc1ccccc1F (stereo not shown)	Not met
COc1ccc2c(C)nc(Nc3nc(C)c4ccccc4c(=O)n3)nc2c1	Met
Cc1cc(C)n(-c2nnc(N)nn2)n1	Met
CC1(C)N=C(N)N=C(N)N1c1c(Cl)cccc1Cl	Not met
COc1cc(C)[n+](OC(=O)N(C)C)c(C)c1	Not met

* * *

Biological target: UniProt:P15144
Assay: Inhibition of alanyl aminopeptidase enzymatic activity, fluorogenic substrate (Ala)2-rhodamine 110
Format: biochemical
Conditions: Table 3, unstarred values; read-out: IC50APN
Please respond with fulfilled when measured IC50 is strictly beneath 40 µM, and with not fulfilled in all other cases.

compound	qualitative_label
O=C(N/N=C/c1ccco1)c1cccc(I)c1	fulfilled
O=C(N/C(=C\c1ccco1)C(=O)N1CCOCC1)c1ccccc1Cl	fulfilled
O=C1C(Cc2ccc3[nH]ccc3c2)NC(=S)N1c1ccccc1 (stereo not shown)	fulfilled
COc1ccc(C(=O)/C=C/c2ccc(-c3ccccc3)o2)cc1	not fulfilled
CCCCOC(=O)c1ccc(NC(=O)/C=C\c2ccco2)cc1	fulfilled
CC(=O)Nc1ccc(C(=O)N/N=C/c2ccco2)cc1	fulfilled
COc1ccc(C2(CNC(=O)/C=C/c3ccco3)CCCC2)cc1OC	fulfilled
NC(=O)C1CCN(C(=O)/C(=C/c2ccco2)NC(=O)c2ccccc2)CC1	fulfilled
COc1c(OCC(O)C(C)(C)O)ccc2c1N=C1OC=CC1C2OC (stereo not shown)	not fulfilled
CCOc1ccccc1NC(=O)c1c(NCc2cccc(OC)c2)sc2c1CCC2	not fulfilled
O=C(COc1cccc2ccccc12)N/N=C/c1ccco1	fulfilled
CC1=C(C#N)C(=O)N(CCCO)C(=O)/C1=C\c1ccc(-c2cc(C)c(C)cc2[N+](=O)[O-])o1	fulfilled
Cc1nc(NC(C)C(=O)O)c2nc(C)oc2n1 (stereo not shown)	not fulfilled
COc1ccc(C[C@@H](N)C(=O)N[C@@H]2[C@H](O)[C@H](n3cnc4c(N(C)C)ncnc43)O[C@@H]2CO)cc1	fulfilled
CC(=O)c1ccc(NC(=O)/C=C/c2ccc(C)o2)cc1	not fulfilled
COc1ccc(/C(C)=N/NC(=O)CNC(=O)/C=C\c2ccco2)cc1OC	fulfilled
CCOc1ccc(Br)cc1C(=O)N/N=C/c1ccco1	fulfilled
CCOC(=O)c1cc(-c2ccc(/C=C3/C(=O)NC(=O)C(C#N)=C3C)o2)ccc1Cl	not fulfilled
COc1ccc(/C=N/NC(=O)C2=C(C)Nc3ccccc3S2)cc1Cn1nc(C)c(Br)c1C	fulfilled

* * *

Molecular target: alanyl aminopeptidases (APN) (Homo sapiens)
Assay: Inhibition of alanyl aminopeptidase enzymatic activity, fluorogenic substrate (Ala)2-rhodamine 110
Format: biochemical
Details: Table 3, unstarred values; read-out: IC50APN

compound	IC50 (µM)
CC(=O)Nc1ccc(C(=O)N/N=C/c2ccc(C)o2)cc1	29.7
Cc1cc(C)n(-c2nnc(N)nn2)n1	20.3
Cc1cccc(C)c1NC1C(c2ccccc2NC(=O)Nc2ccc(OC(F)(F)F)cc2)N=C2C(C(=O)NCC(C)C)=CC=CN21 (stereo not drawn)	31.1
O=C(N/N=C\c1ccco1)c1ccc(Br)cc1	24.5
O=C(CCC(=O)Nc1ccccc1)N/N=C/c1ccco1	41.1
Cc1ccc(/C=N/NC(=O)c2ccc(N3CCCC3=O)cc2)o1	44.2
O=C(CCn1nnc2ccccc21)N/N=C/c1ccco1	82.9
O=C(N/C(=C\c1ccco1)C(=O)N1CCCC(CO)C1)c1ccccc1 (stereo not drawn)	19
O=C1C(=Cc2ccc([N+](=O)[O-])o2)C(=O)c2ccccc21	68
CC(C)c1cc(C(=O)N/N=C/c2ccco2)[nH]n1	16.6
CC(/C=N/NC(=O)c1ccco1)=C\c1ccco1	27.5
COc1ccc(C2NCCS2)cc1Br (stereo not drawn) [A3.215]	35.7
O=C(/C=C/c1ccco1)Nc1cccc(C(=O)O)c1	44.2
O=C(N/N=C1/C(=O)Nc2ccc(F)cc21)/C(=C/c1ccccc1)NC(=O)c1ccccc1	44.2
CSCCC(Nc1ncnc2c1oc1ccccc12)C(=O)O (stereo not drawn)	48.4
CN1C/C(=C/c2ccco2)C(=O)/C(=C/c2ccco2)C1	19.2
Cc1ccc(/C=N/NC(=O)c2ccc(F)cc2)o1	34.4
NC(=S)N/N=C/c1ccco1	50
O=C(COc1ccc2ccccc2c1Br)N/N=C/c1ccco1	47.3
Cc1cc(=O)[nH]c(N/N=C/c2ccco2)n1	18.2
CC(=O)n1cc(/C=C/C=N/NC(=O)CC#N)c2ccccc21	35.5
Cc1nc(-c2ccc(Br)cc2)c(CC(=O)O)s1	88.3
C/C(=N\NC(=O)CNC(=O)/C=C/c1ccco1)c1ccc2ccccc2c1	12
O=C(CNC(=O)C(c1ccccc1)c1ccccc1)N/N=C/c1ccco1	15.6
Cc1ccc(/C=N\NC(=O)Cc2cccs2)o1	51.1
CC1CCN(S(=O)(=O)c2ccc3c(c2)C(Cl)(Cl)C(=O)N3)CC1	37.2
Nc1nc2nc(-c3ccco3)cc(C(F)(F)F)n2n1	32.1
N#Cc1c(NC(=O)C(C(F)(F)F)C(F)(F)F)sc2c1CCCC2	71.4
COc1cc(Br)ccc1OCC(=O)N/N=C(C)/C=C/c1ccco1	36.3
CC1CCCCN1S(=O)(=O)c1ccc(NC(=O)/C=C/c2ccco2)cc1 (stereo not drawn)	19.9
O=C(N/N=C/c1ccco1)c1cccc(NC(=O)c2ccccc2)c1	29.5
NNC(=O)Cn1c2ccccc2n2cc(-c3ccccc3)cc12	18.7
C(=C\c1ccco1)/c1nc2ccccc2[nH]1	28.7
